Test system: biotinyl-Phe-oxazolone
Assay: self-aminoacylation, catalytic enhancement (BFO) (fold over background); higher = more active; k-Seq, kA / k0A0; sequences stand for … in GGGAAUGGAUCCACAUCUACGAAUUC…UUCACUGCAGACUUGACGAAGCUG
Variants at the floor of the assay were thinned out.
Lab note: anything with self-aminoacylation at or over 3 counts as condition met; the rest go in condition not met.

# bool: self-aminoacylation of AUCACCCUGGUCAUCGAGUAA [Fam2.1 aminoacylation ribozyme variant] >= 3
condition met

Try this sequence next: CUACUUCAAACAAACGUUCUG [Fam1A.1 aminoacylation ribozyme variant]
condition not met

Try this sequence next: AGUACCCUGGUGAUCGAGUGA [Fam2.1 aminoacylation ribozyme variant]
condition met

Try this sequence next: AAAUUUGGUAAUAGUCGCAAG [Fam3.1 aminoacylation ribozyme variant]
condition not met

Try this sequence next: CUACCUAAAACAAUCGGUCUG [Fam1A.1 aminoacylation ribozyme variant]
condition not met

Try this sequence next: CCCCACUUCAUGCAAUCGGUC [Fam1B.1 aminoacylation ribozyme variant]
condition not met

Try this sequence next: AGGUUUACUAAUAGUCGCAAG [Fam3.1 aminoacylation ribozyme variant]
condition met

Try this sequence next: AAGUUUGCUAACAGUCACAAG [Fam3.1 aminoacylation ribozyme variant]
condition not met

Try this sequence next: AUUCCCCUAGGACAUCGGGUG [Fam2.2 aminoacylation ribozyme variant]
condition met

Try this sequence next: AUGACCCUGGUCAUCGAGUUA [Fam2.1 aminoacylation ribozyme variant]
condition met

Try this sequence next: AUUCACCUAGGCCAUCGGGCG [Fam2.2 aminoacylation ribozyme variant]
condition met

Try this sequence next: AUUCACCUAGGUGAGCGGGUG [Fam2.2 aminoacylation ribozyme variant]
condition met

Try this sequence next: CUACUUCAAACAAUCGGACUA [Fam1A.1 aminoacylation ribozyme variant]
condition not met

Try this sequence next: AGGUUUGCUAAUAGUCACAAG [Fam3.1 aminoacylation ribozyme variant]
condition met

Try this sequence next: CCAAACUUCAAACAAUCGGUC [Fam1B.1 aminoacylation ribozyme variant]
condition met

Try this sequence next: UUUCACCUAGCUCAUCGGGUG [Fam2.2 aminoacylation ribozyme variant]
condition not met

Try this sequence next: ACUACCCUGGUCAUCGACUGA [Fam2.1 aminoacylation ribozyme variant]
condition met

Try this sequence next: AAGUUUCCUAAUAGUCGCAGG [Fam3.1 aminoacylation ribozyme variant]
condition met

Try this sequence next: CCACACUUCAAGCUAUCGGUU [Fam1B.1 aminoacylation ribozyme variant]
condition not met

Try this sequence next: GUUACCCUGGUCAUCGAGCGA [Fam2.1 aminoacylation ribozyme variant]
condition met

Try this sequence next: AUACACCGAGGUCAUCGGGUG [Fam2.2 aminoacylation ribozyme variant]
condition met

Try this sequence next: AUUCACCCAGGCCAUCGGGUG [Fam2.2 aminoacylation ribozyme variant]
condition met

Try this sequence next: AUUACCCUGGUAAUCGAGAGA [Fam2.1 aminoacylation ribozyme variant]
condition not met

Try this sequence next: CUUACCCUGGUCAUCGAGUGA [Fam2.1 aminoacylation ribozyme variant]
condition met

Try this sequence next: CGACACUUCAGGCAAUCGGUC [Fam1B.1 aminoacylation ribozyme variant]
condition not met

Try this sequence next: AUUACCCUGUUAAUCGAGUGA [Fam2.1 aminoacylation ribozyme variant]
condition met

Try this sequence next: AAGUUUGCUAAUGGGCGCAAG [Fam3.1 aminoacylation ribozyme variant]
condition not met

Try this sequence next: AAGUUUGCUAAUAAUCACAAG [Fam3.1 aminoacylation ribozyme variant]
condition not met

Try this sequence next: AUUAACCUGGUCAUAGAGUGA [Fam2.1 aminoacylation ribozyme variant]
condition met

Try this sequence next: CCACACUUCAAGCAAUCUGCC [Fam1B.1 aminoacylation ribozyme variant]
condition not met

Try this sequence next: AGUACCCUGGUCAUCGCGUGA [Fam2.1 aminoacylation ribozyme variant]
condition met

Try this sequence next: AAGUCUGCUGAUAGUCGCAAG [Fam3.1 aminoacylation ribozyme variant]
condition met

Try this sequence next: AUGCACCUCGGUCAUCGGGUG [Fam2.2 aminoacylation ribozyme variant]
condition met

Try this sequence next: AUUCACAUCGGUCAUCGGGUG [Fam2.2 aminoacylation ribozyme variant]
condition met

Try this sequence next: AUUCGCCUAGGACAUCGGGUG [Fam2.2 aminoacylation ribozyme variant]
condition met
